Tested on: CD8F1 mice, subcutaneous mammary adenocarcinoma, T/C%
Assay: NCI In Vivo Anticancer Drug Screen. Data for tumor model Mammary Adenocarcinoma CD8F1 (subcutaneous) in CD8F1
Conditions: endpoint: mean tumor weight; dose: 100.0 mg/kg/injection; schedule: Q01DX009 (ip); vehicle: saline; higher = larger tumour
Inconclusive results are not listed.
Measurement Name: T/C

See these solved cases before continuing.
Just so you know, measured T/C for Nc1n[nH]c(N)n1 came out at 207 % of control

Just so you know, measured T/C for O=c1[nH]c(=O)n(C2CC(O)C(CO)O2)cc1F (centres undefined) came out at 30 % of control

Just so you know, measured T/C for OC(CBr)C(O)C(O)C(O)CBr (centres undefined) came out at 164 % of control

Now examine the next entry.
Just so you know, measured T/C for CC(=O)NNC(=O)c1ccccn1 came out at 32 % of control

---

// reported T/C for each item listed
Tested on: CD8F1 mice, subcutaneous mammary adenocarcinoma, T/C%
Test: NCI In Vivo Anticancer Drug Screen. Data for tumor model Mammary Adenocarcinoma CD8F1 (subcutaneous) in CD8F1
Details: endpoint: median tumor weight change; dose: 62.5 mg/kg/injection; schedule: Q01DX001 (ip); vehicle: saline; higher = larger tumour
Records with an inconclusive call do not appear.

See these solved cases before continuing.
Just so you know, measured T/C for Brc1c(NC2=NCCN2)ccc2nccnc12 came out at 81 % of control

Just so you know, measured T/C for CCCC(=O)O came out at 80 % of control

Just so you know, measured T/C for O=c1n(CC2CO2)c(=O)n(CC2CO2)n1CC1CO1 (stereo unspecified) came out at 29 % of control

Next:
Just so you know, measured T/C for Nc1cccc(=O)[nH]1 came out at 55 % of control

Just so you know, measured T/C for C1CNCOC1 came out at 48 % of control

Just so you know, measured T/C for COc1cc(Cc2nccc3cc(OC)c(OC)cc23)c(C(C)=O)cc1OC came out at 41 % of control

---

// reported T/C for each item listed
Test system: CD8F1 mice, subcutaneous mammary adenocarcinoma, T/C%
Test: NCI In Vivo Anticancer Drug Screen. Data for tumor model Mammary Adenocarcinoma CD8F1 (subcutaneous) in CD8F1
Settings: endpoint: median tumor weight (est.); dose: 800.0 mg/kg/injection; schedule: Q07DX005 (ip); vehicle: saline; higher = larger tumour
Results filed as inconclusive are left out.

Just so you know, measured T/C for O=c1cnn(C2OC(CO)C(O)C2O)c(=O)[nH]1 (configuration not stated) came out at 64 % of control

Just so you know, measured T/C for COC(=O)C(N)Cc1ccc(O)c(O)c1 (configuration not stated) came out at 108 % of control

Just so you know, measured T/C for CN1c2c(nc(N)[nH]c2=O)NCC1CCNc1ccc(C(=O)NC(CCC(=O)O)C(=O)O)cc1 (configuration not stated) came out at 98 % of control

Just so you know, measured T/C for C=CCc1cn(C2CC(O)C(CO)O2)c(=O)[nH]c1=O (configuration not stated) came out at 79 % of control

Just so you know, measured T/C for CCCC(=O)Nc1ncnc2c1ncn2C1OC2COP(=O)(O)OC2C1OC(=O)CCC (configuration not stated) came out at 72 % of control

Just so you know, measured T/C for O=C(O)CP(=O)(O)O came out at 79 % of control

Now examine the next entry.
Just so you know, measured T/C for Nc1cccc(=O)[nH]1 came out at 78 % of control
